Every entry's value here was drawn from patent US20240174727A1.

Listing of recorded Net cGMP (nM) Change from Baseline 72 h by entry.
# Tested on: plasma cGMP
# Procedure text: In vivo monkey studies, plasma cGMP ELISA
# Set-up: species or system male cynomolgus monkeys
# Measurement parameters: dose 100 nmol/kg; 72 h postdose; monkey plasma
Numbered stars: 1 amine (or outer) side, 2 acyl side, 3 side chain; on linkers, the order of the positions; unused ones are H or OH. Bridge positions count the residues as written; N and C are the ends. Square brackets hold non-standard residues; d marks the D form. * marks the point of attachment. PEG24 = NCCOCCOCCOCCOCCOCCOCCOCCOCCOCCOCCOCCOCCOCCOCCOCCOCCOCCOCCOCCOCCOCCOCCOCCOCCC(=O)O; C20 diacid = O=C(O)CCCCCCCCCCCCCCCCCCC(=O)*; γGlu = O=C(O)[C@H](CCC(=O)[*:2])N[*:1]; 4Pal = N[C@@H](Cc1ccncc1)C(=O)O; CH2 = C([*:1])[*:2]; βAla = NCCC(=O)O
Field: numeric (nM). Do not append units.

Example results:
| Substance | Unit symbol | Net cGMP (nM) Change from Baseline 72 h |
| --- | --- | --- |
| {C20 diacid-γGlu}-EKEKEKG[PEG24]EK[βAla]RSSCFGKRIDRIGHYSGLGCPSFRHGSPSSGAPPPS-NH2 (linker 15-31 via CH2) [Example 106] | nM | 5.67 |
| {C20 diacid-γGlu}-EKEKEKGS[4Pal]RRSSCFGGRIGRIGHQSGLGCPSFRHGGPSSGAPPPS-NH2 (disulfide 14-30) [Example 29] | nM | 12.46 |
| {C20 diacid-γGlu}-EKEKEKG[PEG24]S[4Pal]RRSSCFGGRIDRIGHQSGLGCPSFRHGGPSSGAPPPS-NH2 (linker 15-31 via CH2) [Example 61] | nM | 14.82 |

Turning to the following substance.
Look up Net cGMP (nM) Change from Baseline 72 h: (BFAEN2-βAla)-EKEKEKG-PEG24-EK-βAla-RSS[CFGKRIDRIGHQSGLGC]PSFRHGSPSSGAPPPS-NH2 (EKXRSSCFGKRIDRIGHQSGLGCPSFRHGSPSSGAPPPS; BFAEN2-βAla, PEG24, C-terminal amide; MOD_RES 1 N-terminal modified with (BFAEN2-beta-Ala)-EKEKEKG-PEG24-; wherein BFAEN2 is Bifurcated Fatty Acid Enantiomer 2; SITE 3 X at position 3 is beta-Alanine; MOD_RES 39 Amidation; DISULFID 7..23 Intrachain thioacetal bond) [Example 144]
5.22
